- test_context: in acetonitrile, 283.15 K
endpoint_name: solubility (mole fraction)
// keep it numeric: no unit symbol after the value

# get_value(readout='solubility (mole fraction)', item= `CNC[C@H](O)[C@@H](O)[C@H](O)[C@H](O)CO.Cc1c(Nc2ncccc2C(=O)O)cccc1C(F)(F)F` )
3.16e-05

----------
- test_context: in isopropanol, 288.15 K
endpoint_name: solubility (mole fraction)
// no unit, no text: just the number

Give the measured solubility (mole fraction) of `CNC[C@H](O)[C@@H](O)[C@H](O)[C@H](O)CO.Cc1c(Nc2ncccc2C(=O)O)cccc1C(F)(F)F` .
0.000759

----------
- test_context: in isopropanol, 308.15 K
endpoint_name: solubility (mole fraction)
Write the value as a bare number.

Suppose we examine the molecule `CNC[C@H](O)[C@@H](O)[C@H](O)[C@H](O)CO.Cc1c(Nc2ncccc2C(=O)O)cccc1C(F)(F)F` ; what solubility (mole fraction) value has been reported?
0.00198

Every entry's value here was drawn from BigSolDB 2.1.
